- Test system: operator
- experimental.protocol: Biacore SPR operator binding characterization of repressors

molecule: L7-1C03-A5: ethametsulfuron repressor (EsR), SEQ ID NO:408 (protein, Sulfonylurea responsive repressor L7-1C3-A5) MARLDKSKVINSALELLNEVGIEGLTTRKLAQKLGVEQPTLYWHVKNKRALLDAMAIEMLDRHATHVCPLEGESWQDFLRNNAKIMRCALLSHRDGAKVCLGTGFTEQQYETAENSLAFLCQQGFSLEHALYAMQAAGIFTLGCVLLDQELQVAKEERETPTTDSMPPLVRQALELNDHQGAEPAFLFGLELIICGLEKQLKCESGS
ka: 47000 M⁻¹ s⁻¹
--
molecule: L7-1G06-B2: ethametsulfuron repressor (EsR), SEQ ID NO:410 (protein, Sulfonylurea responsive repressor L7-1G6-B2) MARLDKSKVINSALELLNEVGIEGLTTRKLAQKLGVEQPTLYWHVKNKRALLDAMAIEMLDRHATHYCPLEGESWQDFLRNNAKSMRCALLSHRDGAKVCLGTGFTEQQYETAENSMAFLCQQGFSLENALYAMQAVGIYTLGCVLLDQELQVAKEERETPTTDSMPPLVRQALELKDHQGAEPAFLFGLELIICGLEKQLKCESGS
ka: 46000 M⁻¹ s⁻¹
--
molecule: L7-1F08-A11: ethametsulfuron repressor protein, SEQ ID NO:409 (protein, Sulfonylurea responsive repressor L7-1F8-A11) MARLDKSKVINSALELLNEVGIEGLTTRKLAQKLGVEQPTLYWHVKNKRALLDAMAIEMLDRHATHYCPLEGESWQDFLRNNAKSMRCALLSHRDGAKVCLGTGFTEQQYETAENSLAFLCQQGFSLENALYAMQAVGIYTLGCVLLDQELQVAKEERETPTTDSMPPLVRQALELKDHQGAEPAFLFGLELIICGLEKQLKCESGS
ka: 71000 M⁻¹ s⁻¹

This collection of values is drawn from patent US20110287936A1.
